Recorded IC50 values for a group of molecules are listed next.
Biological target: Human Topoisomerase I (Homo sapiens, UniProt P11387)
Sequence (P11387 1-765): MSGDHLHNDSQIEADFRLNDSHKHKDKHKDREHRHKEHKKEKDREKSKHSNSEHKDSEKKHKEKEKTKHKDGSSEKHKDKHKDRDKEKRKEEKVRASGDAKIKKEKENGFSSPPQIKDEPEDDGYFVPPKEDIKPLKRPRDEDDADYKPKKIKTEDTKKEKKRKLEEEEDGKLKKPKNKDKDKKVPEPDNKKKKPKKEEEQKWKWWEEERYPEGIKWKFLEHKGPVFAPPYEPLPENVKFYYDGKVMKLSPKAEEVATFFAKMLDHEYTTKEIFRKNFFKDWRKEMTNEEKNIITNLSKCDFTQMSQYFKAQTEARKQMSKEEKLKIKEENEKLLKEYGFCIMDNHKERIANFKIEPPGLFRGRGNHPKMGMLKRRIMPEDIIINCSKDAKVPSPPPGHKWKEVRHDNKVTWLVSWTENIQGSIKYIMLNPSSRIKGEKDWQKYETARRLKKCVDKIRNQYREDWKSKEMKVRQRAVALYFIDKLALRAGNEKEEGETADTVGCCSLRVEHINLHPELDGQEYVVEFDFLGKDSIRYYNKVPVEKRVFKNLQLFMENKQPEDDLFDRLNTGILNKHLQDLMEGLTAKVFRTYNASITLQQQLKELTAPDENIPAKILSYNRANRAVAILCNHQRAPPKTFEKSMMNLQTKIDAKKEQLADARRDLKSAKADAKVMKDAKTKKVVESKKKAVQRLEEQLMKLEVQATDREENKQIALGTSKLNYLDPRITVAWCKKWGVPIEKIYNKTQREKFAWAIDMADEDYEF
observed.property: IC50 (µM)

{"columns": ["molecule", "sign.qualifier", "readout.value"],
 "data": [
  ["CC1(C)Oc2cc3[nH]c4c(c5c(c6c7cc(O)ccc7n(C7OC(CO)C(O)C(O)C7O)c46)C(=O)N(CO)C5=O)c3cc2O1 (stereo not drawn) [compound 23]", "=", 130],
  ["O=C1NC(=O)c2c1c1c3cc(O)ccc3[nH]c1c1c2c2cc3c(cc2n1[C@@H]1O[C@H](CO)[C@@H](O)[C@H](O)[C@H]1O)OCCO3 [IIa]", ">", 400],
  ["O=C1c2c(c3c4cc(O)ccc4n([C@@H]4O[C@H](CO)[C@@H](O)[C@H](O)[C@H]4O)c3c3[nH]c4cc5c(cc4c23)OCO5)C(=O)N1CO [compound 16]", "=", 3.6]
]}

###

Molecular target: Human Topoisomerase I (Homo sapiens)
Sequence (P11387 1-765): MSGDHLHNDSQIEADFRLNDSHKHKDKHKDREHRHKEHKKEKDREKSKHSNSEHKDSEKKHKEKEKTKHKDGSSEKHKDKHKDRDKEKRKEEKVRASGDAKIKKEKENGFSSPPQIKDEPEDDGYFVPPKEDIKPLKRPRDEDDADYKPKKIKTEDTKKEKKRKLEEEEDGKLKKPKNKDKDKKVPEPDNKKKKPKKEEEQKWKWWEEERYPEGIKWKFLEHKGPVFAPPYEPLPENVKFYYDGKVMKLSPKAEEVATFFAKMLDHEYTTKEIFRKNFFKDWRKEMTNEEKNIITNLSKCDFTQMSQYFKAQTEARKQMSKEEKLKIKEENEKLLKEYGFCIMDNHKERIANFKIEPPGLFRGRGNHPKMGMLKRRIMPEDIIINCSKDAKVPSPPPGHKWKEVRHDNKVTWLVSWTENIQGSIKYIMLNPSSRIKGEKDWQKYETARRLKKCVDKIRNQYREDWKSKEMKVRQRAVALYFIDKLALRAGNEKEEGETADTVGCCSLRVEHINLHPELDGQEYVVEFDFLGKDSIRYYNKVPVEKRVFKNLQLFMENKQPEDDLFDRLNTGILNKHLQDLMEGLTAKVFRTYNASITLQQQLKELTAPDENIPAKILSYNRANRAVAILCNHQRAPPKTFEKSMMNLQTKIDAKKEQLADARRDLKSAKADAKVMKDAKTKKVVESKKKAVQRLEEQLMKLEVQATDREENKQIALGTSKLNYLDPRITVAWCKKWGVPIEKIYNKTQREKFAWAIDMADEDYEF
pIC50: −log10 of the molar value.
observed.property: pIC50

{"columns": ["compound", "sign.qualifier", "readout.value"],
 "data": [
  ["CC1(C)Oc2cc3[nH]c4c(c5c(c6c7cc(O)ccc7n(C7OC(CO)C(O)C(O)C7O)c46)C(=O)NC5=O)c3cc2O1 (stereo not drawn)", "=", 5.09],
  ["O=C1NC(=O)c2c1c1c3cc4c(cc3[nH]c1c1c2c2cc(O)ccc2n1[C@@H]1O[C@H](CO)[C@@H](O)[C@H](O)[C@H]1O)OCO4", "=", 5.44],
  ["O=C1NC(=O)c2c1c1c3cc(O)ccc3[nH]c1c1c2c2cc(O)ccc2n1[C@@H]1O[C@H](CO)[C@@H](O)[C@H](O)[C@H]1O [ALS-007, reference compound]", "=", 4.68],
  ["O=C1NC(=O)c2c1c1c3cc(O)ccc3[nH]c1c1c2c2cc3c(cc2n1[C@@H]1O[C@H](CO)[C@@H](O)[C@H](O)[C@H]1O)OCO3", "<", 3.40],
  ["O=C1NC(=O)c2c1c1c3cc4c(cc3[nH]c1c1c2c2cc(O)ccc2n1[C@@H]1O[C@H](CO)[C@@H](O)[C@H](O)[C@H]1O)OCCO4", "=", 5.27],
  ["O=C1c2c(c3c4cc(O)ccc4n(C4OC(CO)C(O)C(O)C4O)c3c3[nH]c4cc5c(cc4c23)OCCO5)C(=O)N1CO (stereo not drawn)", "=", 5.41]
]}
